Items are presented alongside their recorded normalized growth.
assay.notes: chemical genetic growth profiling, strain panel (AID 1159580);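 note: tested at 20 µM; growth read once vehicle control cultures reached saturation at 30 °C; 1 = growth at the plate median or of vehicle wells; lower values mean less growth of the strain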
experimental.context: S. cerevisiae deletion strains, growth OD, locus YGL248W, strain PDE1, hits give low values
The whole screen tested about 5,500 compounds, of which about 2,000 (36%) were called active. Inconclusive results (about 18%) are left out. This is one part of the list.
Please give only the number in your answer, with no unit.

Previously resolved entries follow.
| molecule | normalized growth |
| --- | --- |
| Nc1ccc(S(=O)(=O)c2ccc(N)cc2)cc1 | 1.02 |
| C/C=C(/C)C(=O)OC1CCC2(C)C3CCC4C5(O)CC(O)C6(O)C(CN7CC(C)CCC7C6(C)O)C5(O)CC42OC13O (configuration not stated) | 0.928 |
| O=c1cc(CO)occ1O | 1 |
| O=C(O)/C=C1\CCCc2ccccc2C1O (configuration not stated) | 0.979 |

Input: # query: normalized growth of entry CCOP(=S)(OCC)Oc1cc(C)nc(C(C)C)n1
Output: 0.961

Input: Need normalized growth, item Cc1cc(O)cc(C)c1Cl
Output: 0.999
